# protocol: Half life in nude BALB/c mouse serum at 8.0 mg/kg incubated up to 9 hrs, po administered via gavage by LC-MS/MS analysis
# Format: ADME, organism-based
parameter: half-life (h)
Just the number please, in h, no unit attached.

### Prompt Given CCc1c2c(nc3ccc(OCC(=O)N4CCCCC4)cc13)-c1cc3c(c(=O)n1C2)COC(=O)[C@]3(O)CC , state its recorded half-life.
### Response 1.46

====

# protocol: MRT (0 to infinity) in nude BALB/c mouse serum at 8.0 mg/kg incubated up to 9 hrs, po administered via gavage by LC-MS/MS analysis
# Assay type: ADME, organism-based
parameter: MRT inf (h)
Just the number please, in h, no unit attached.

### Prompt Given CCc1c2c(nc3ccc(OCC(=O)N4CCCCC4)cc13)-c1cc3c(c(=O)n1C2)COC(=O)[C@]3(O)CC , state its recorded MRT inf.
### Response 1.15

====

# System: LoVo
# protocol: Cytotoxicity against human LoVo assessed as reduction in cell viability measured after 72 hrs by MTT assay
# Assay type: functional, cell-based
parameter: IC50 (µM)
Just the number please, in µM, no unit attached.

### Prompt Given CCc1c2c(nc3ccc(OCC(=O)N4CCCCC4)cc13)-c1cc3c(c(=O)n1C2)COC(=O)[C@]3(O)CC , state its recorded IC50.
### Response 0.081

### Prompt Note, next up: CC[C@@]1(O)C(=O)OCc2c1cc1n(c2=O)Cc2cc3cc(O)ccc3nc2-1 [HYDROXYCAMPTOTHECIN]
### Response 0.33

### Prompt Note, next up: CC[C@@]1(O)C(=O)OCc2c1cc1n(c2=O)Cc2cc3cc(OCC(=O)N4CCCC4)ccc3nc2-1
### Response 0.88

### Prompt Note, next up: CCc1c2c(nc3ccc(OCC(=O)N4CCCC4)cc13)-c1cc3c(c(=O)n1C2)COC(=O)[C@]3(O)CC
### Response 0.181

====

# protocol: MRT (0 to infinity) in nude BALB/c mouse serum at 8.0 mg/kg incubated up to 9 hrs, iv administered […] by LC-MS/MS analysis
# Assay type: ADME, organism-based
parameter: MRT inf (min)
Just the number please, in min, no unit attached.

### Prompt Given CCc1c2c(nc3ccc(OCC(=O)N4CCCCC4)cc13)-c1cc3c(c(=O)n1C2)COC(=O)[C@]3(O)CC , state its recorded MRT inf.
### Response 13.8

====

# protocol: Oral bioavailability in nude BALB/c mouse serum at 8.0 mg/kg incubated up to 9 hrs, via gavage by LC-MS/MS analysis
# Format: ADME, organism-based
parameter: bioavailability (%)
Just the number please, in %, no unit attached.

### Prompt Given CCc1c2c(nc3ccc(OCC(=O)N4CCCCC4)cc13)-c1cc3c(c(=O)n1C2)COC(=O)[C@]3(O)CC , state its recorded bioavailability.
### Response 22.4

====

# protocol: Clearance in nude BALB/c mouse serum at 8.0 mg/kg incubated up to 9 hrs, po administered via gavage by LC-MS/MS analysis
# Assay type: ADME, organism-based
parameter: CL/F (mL/min)
Just the number please, in mL/min, no unit attached.

### Prompt Given CCc1c2c(nc3ccc(OCC(=O)N4CCCCC4)cc13)-c1cc3c(c(=O)n1C2)COC(=O)[C@]3(O)CC , state its recorded CL/F.
### Response 0.794
